Catalogue of compounds with associated % FF (percentage of leaf feeding)
System: Heliothis virescens (tobacco budworm)
Type: in vivo
CONDITION DETAILS: base leaf sampled 96 h after drench, 10 mL of 300 ppm; 0 equals no feeding
Lab book: enter the figure in %, no units written.

Reference set (2 entries):
# COMPOUND, MEASURED RESULT
records = [
    ("Cc1cc(Cl)cc(C(=O)NC(C)C)c1NC(=O)c1cc(Br)nn1-c1ncccc1Cl [Compound 530]", 5),
    ("Cc1cc(Cl)cc(C(=O)NC(C)C)c1NC(=O)c1cc(C(F)(F)F)nn1-c1ncccc1Cl [Compound 497]", 20),
]

*Q* Please look up its % FF (percentage of leaf feeding): CNC(=O)c1cc(Cl)cc(C)c1NC(=O)c1cc(C(F)(F)F)nn1-c1ncccc1Cl [Compound 500]
*A* 30

*Q* Which % FF (percentage of leaf feeding) value belongs to CNC(=O)c1cc(Cl)cc(C)c1NC(=O)c1cc(Br)nn1-c1ncccc1Cl [Compound 531] ?
*A* 10

*Q* Sample Cc1cc(Cl)cc(C(=O)NC(C)C)c1NC(=O)c1cc(Cl)nn1-c1ncccc1Cl [Compound 543] — what was its % FF (percentage of leaf feeding)?
*A* 5

* * *

The compounds listed here are annotated with their melting point.

Some compounds with known melting point results, for comparison:
# CPD SMILES, melting point
rows = [
    ("CCn1nc(C(F)(F)F)cc1NC(=O)c1c(C)cccc1C(=O)NC(C)C", "200 to 204 °C"),
    ("Cc1cccc(C(=O)NC(C)C)c1NC(=O)c1cc(C(F)(F)F)nn1-c1ncccc1C(F)(F)F", "233 to 235 °C"),
    ("CNC(=O)c1cc(Cl)cc(C)c1NC(=O)c1cc(OCC(F)(F)F)nn1-c1ncccc1Cl", "215 to 217 °C"),
]

Now look at this one.
*Q* Given the compound CNC(=O)c1cc(Cl)cc(C)c1NC(=O)c1cc(Cl)nn1-c1ncccc1Cl , what is its reported melting point?
*A* 205 to 207 °C
